SYSTEM NAME: T1, recombinant CD3D&E protein (human CD3-his tag) (human, UniProt P04234 22-105; P07766 23-126, limits assumed)
T1 construct: Analyte in Biacore; also called CD3D&E-His; CD3d&ε-His
T1 sequence (P04234 22-105 limits assumed, chain 1 of 2): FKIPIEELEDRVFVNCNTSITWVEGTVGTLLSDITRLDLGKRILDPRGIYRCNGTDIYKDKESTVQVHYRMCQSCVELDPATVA
T1 sequence (P07766 23-126 limits assumed, chain 2 of 2): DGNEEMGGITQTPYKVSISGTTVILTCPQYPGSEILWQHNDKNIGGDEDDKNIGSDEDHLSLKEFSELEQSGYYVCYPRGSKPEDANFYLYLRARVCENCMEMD
MEASUREMENT NOTES: SPR Biacore, Ab captured on Protein A;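 note: humanized antibodies on a Protein A chip, human CD3-his analyte flowed over in serial dilutions for 3 min, dissociation tracked 120–360 s on a Biacore T200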
The following binders are listed with their measured kon values.
MEASURED ATTRIBUTE: kon (M⁻¹ s⁻¹)

>>> quantitative_result("Hu192A7B9-12 (antibody, V domains shown, humanized mAb) VH: EVQLQESGPGLVKPSETLSLTCTVSGFSLTSYNVHWVRQPPGKGLEWMGRMRYNGDTSYNSALKSRLTISRDTSKNQVSLKLSSVTAADTAVYYCTRGPRGGYYSALFDYWGQGTMVTVSS VL: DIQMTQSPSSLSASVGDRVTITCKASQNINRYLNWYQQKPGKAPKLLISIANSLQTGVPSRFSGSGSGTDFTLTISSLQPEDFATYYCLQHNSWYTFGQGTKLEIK")
54600
>>> quantitative_result("Hu155A9B1-4 (antibody, V domains shown, humanized mAb) VH: EVQLQESGPGLVKPSETLSLTCTVSGGSISSYNVHWVRQPPGKGLEWMGRVRYNGDTSYNSALKSRLTISRDTSKNQFSLKLSSVTAADTAVYYCTRGPYGGSSEPLFDYWGQGTMVTVSS VL: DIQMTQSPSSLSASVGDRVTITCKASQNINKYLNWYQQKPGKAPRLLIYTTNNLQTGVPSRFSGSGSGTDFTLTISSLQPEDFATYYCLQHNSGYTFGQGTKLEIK")
409000
>>> quantitative_result("Hu155A9B1-14 (antibody, V domains shown, humanized mAb) VH: EVQLQESGPGLVKPSETLSLTCTVSGGSISSYNVHWVRQPPGKGLEWIGRVRYNGDTSYNSALKSRVTISRDTSKNQFSLKLSSVTAADTAVYYCARGPYGGSSEPLFDYWGQGTMVTVSS VL: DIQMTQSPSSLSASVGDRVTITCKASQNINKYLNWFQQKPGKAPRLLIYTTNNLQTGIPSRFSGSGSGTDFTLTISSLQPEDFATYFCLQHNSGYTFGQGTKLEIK")
236000

// data source = patent US20240417469A1
